- Protocol text: Solubility test at pH=4 from phosphate buffer pH 6 0.1M, by HPLC
- Type: physicochemical
- Applied conditions: aqueous buffer, thermodynamic from solid; phosphate buffer pH 6 0.1M, HPLC; first figure of the S/pH cell, the pH of the sample is the second
Counter-ions that a name gives are not always drawn.
Measurement type: solubility at 5 min (µg/mL)

q: // solubility at 5 min lookup, key: CCc1cc2ccccn2c1C(=O)c1ccc(CCCN(CC)CC)cc1.O=C(O)C(=O)O
a: 7470

q: Please do the same for CCCCc1cc2ccccn2c1C(=O)c1ccc(CCCN(C)C)cc1.Cl as well.
a: 1420

1 = CCCCN(CCCC)CCCc1ccc(C(=O)c2c(CCC)cc3ccccn23)cc1 [compound 19, hydrochloride]
2 = CCCN(CC)CCCc1ccc(C(=O)c2c(C)cc3ccccn23)cc1 [compound 26, hydrochloride]
q: # min-compare on solubility at 5 min between 1 and 2 // return label of chosen record
a: 2
(2: 1490 µg/mL, 1: 4070 µg/mL)

###

- Protocol text: Solubility test at pH=4 from phosphate buffer pH 6 0.1M, by HPLC
- Format: physicochemical
- Applied conditions: aqueous buffer, thermodynamic from solid; phosphate buffer pH 6 0.1M, HPLC; first figure of the S/pH cell, the pH of the sample is the second
- Method: The results for solubility, S, and pH are shown in the table below and are expressed in mg/ml. A phosphate buffer, pH6, 0.1M, was prepared by adding 6.15 ml of 0.1M Na2HPO4 to 43.85 ml of 0.1M NaH2PO4. The solution was made up to 100 ml with filtered water using a Millipore system (trade mark). Reference (Test Product in a Concentration in which the Latter is Soluble and which Acts as an Internal Reference) […] The solubility of the compound was then determined by HPLC under the following conditions: […]
Where a name gives a salt, the structure may show the parent alone.
Measurement type: solubility at 5 min (µg/mL)

Solved entries (count: 2):
q: Find the recorded solubility at 5 min belonging to CCCCc1cc2ccccn2c1C(=O)c1ccc(CCCN2C[C@@H](C)N(C)[C@@H](C)C2)cc1 [compound 40, hydrochloride] and report it.
a: 9930

q: Entry to check: CCCN(CC)CCCc1ccc(C(=O)c2c(CC)cc3ccccn23)cc1 [compound 24, oxalate]
a: 5920

a = CCCCc1cc2ccccn2c1C(=O)c1ccc(CCCN(CCOC)CCOC)cc1 [compound 41, oxalate]
b = CCCCc1cc2ccccn2c1C(=O)c1ccc(CCCN(CCC)CC2CC2)cc1 [compound 35, hydrochloride]
c = CCCN(CC)CCCc1ccc(C(=O)c2c(C(C)C)cc3ccccn23)cc1 [compound 25, hydrochloride]
q: Falling order of solubility at 5 min, please. Would you mind listing the labels in the order requested?
a: a, b, c

###

- Protocol text: Solubility test at pH=4 from phosphate buffer pH 6 0.1M, by HPLC
- Assay type: physicochemical
- Applied conditions: second figure of the S/pH cell; pH noted for the solubility sample
Counter-ions that a name gives are not always drawn.
Measurement type: pH (of the solubility sample)

Would you please look over these solved cases?
q: What value of measured pH (of the solubility sample) is listed for CCCNCCCCc1ccc(C(=O)c2c(CCC)cc3ccccn23)cc1.Cl ?
a: 6.3

q: Could you do the same for CCCCc1cc2ccccn2c1C(=O)c1ccc(CCCCN(CCC)CCC)cc1 [compound 10, hydrochloride] , please?
a: 5.81

q: Okay, and CCCCc1cc2ccccn2c1C(=O)c1ccc(CCCCN(CC)CC)cc1.O=C(O)C(=O)O ?
a: 4.10

1 = CCCN(CC)CCCCc1ccc(C(=O)c2c(C)cc3ccccn23)cc1 [compound 28, hydrochloride]
2 = CCCCc1cc2ccccn2c1C(=O)c1ccc(CCCN(CCC)CC2CC2)cc1 [compound 35, hydrochloride]
q: For the two items 1 and 2 , which reports the higher pH (of the solubility sample) value? Reply with the label of the item you choose.
a: 1
(1: 7.01, 2: 4.75)
